Tested on: FLK-1 receptor
Assay: FLK-1 Assay (cellular/catalytic ELISA, VEGF-stimulated phosphotyrosine)
Format: cell-based
Design: concentration or dose not given beside the values
Method: The cellular/catalytic assays described herein are performed in an ELISA format. […] Non-substrate components of the cell lysate are washed away and the amount of phosphorylation on the substrate is detected with an antibody specifically recognizing phosphotyrosine compared with control cells that were not contacted with a test compound. […]

# structure smiles string, Flk Kinase % Inhibition (P.110) / %
rows = [
    ("CCc1ccc(C=C2C(=O)Nc3c(Br)cc(Br)c(C)c32)o1", 5.8),
    ("O=C1Nc2ccc(S(=O)(=O)Nc3ccc(C(F)(F)F)cc3)cc2C1=Cc1c(F)cccc1F", 14.4),
    ("COC(=O)Cc1c(Cl)[nH]c(C=C2C(=O)Nc3c(Br)cc(Br)c(C)c32)c1C(=O)OC", "−6.1"),
    ("COc1cc(O)c(C=C2C(=O)Nc3c(Br)cc(Br)c(C)c32)c(OC)c1", 13.1),
    ("Cc1c(Br)cc(Br)c2c1C(=Cc1ccc(O)c(C(C)(C)C)c1)C(=O)N2", 7.0),
    ("COc1ccc(C=C2C(=O)Nc3c(Br)cc(Br)c(C)c32)c(O)c1", "−0.4"),
    ("N#Cc1ccccc1C=C1C(=O)Nc2ccc(S(=O)(=O)Nc3ccc(C(F)(F)F)cc3)cc21", 16.1),
    ("Cc1cc(C=C2C(=O)Nc3c(Br)cc(Br)c(C)c32)cc(C)c1O", 2.3),
    ("N#Cc1ccccc1C=C1C(=O)Nc2ccc(CCCl)cc21", 17.6),
]

* * *

List of Met Kinase % Inhibition (P.130) values.
Molecular target: Met receptor (EGFR/Met chimeric cells, EMR) (Homo sapiens, UniProt P08581)
Construct: expressed in transfected cells; the other entry of the earlier key: EGFR (P00533, Epidermal growth factor receptor)
Sequence (P08581 with tags, fused parts or gaps): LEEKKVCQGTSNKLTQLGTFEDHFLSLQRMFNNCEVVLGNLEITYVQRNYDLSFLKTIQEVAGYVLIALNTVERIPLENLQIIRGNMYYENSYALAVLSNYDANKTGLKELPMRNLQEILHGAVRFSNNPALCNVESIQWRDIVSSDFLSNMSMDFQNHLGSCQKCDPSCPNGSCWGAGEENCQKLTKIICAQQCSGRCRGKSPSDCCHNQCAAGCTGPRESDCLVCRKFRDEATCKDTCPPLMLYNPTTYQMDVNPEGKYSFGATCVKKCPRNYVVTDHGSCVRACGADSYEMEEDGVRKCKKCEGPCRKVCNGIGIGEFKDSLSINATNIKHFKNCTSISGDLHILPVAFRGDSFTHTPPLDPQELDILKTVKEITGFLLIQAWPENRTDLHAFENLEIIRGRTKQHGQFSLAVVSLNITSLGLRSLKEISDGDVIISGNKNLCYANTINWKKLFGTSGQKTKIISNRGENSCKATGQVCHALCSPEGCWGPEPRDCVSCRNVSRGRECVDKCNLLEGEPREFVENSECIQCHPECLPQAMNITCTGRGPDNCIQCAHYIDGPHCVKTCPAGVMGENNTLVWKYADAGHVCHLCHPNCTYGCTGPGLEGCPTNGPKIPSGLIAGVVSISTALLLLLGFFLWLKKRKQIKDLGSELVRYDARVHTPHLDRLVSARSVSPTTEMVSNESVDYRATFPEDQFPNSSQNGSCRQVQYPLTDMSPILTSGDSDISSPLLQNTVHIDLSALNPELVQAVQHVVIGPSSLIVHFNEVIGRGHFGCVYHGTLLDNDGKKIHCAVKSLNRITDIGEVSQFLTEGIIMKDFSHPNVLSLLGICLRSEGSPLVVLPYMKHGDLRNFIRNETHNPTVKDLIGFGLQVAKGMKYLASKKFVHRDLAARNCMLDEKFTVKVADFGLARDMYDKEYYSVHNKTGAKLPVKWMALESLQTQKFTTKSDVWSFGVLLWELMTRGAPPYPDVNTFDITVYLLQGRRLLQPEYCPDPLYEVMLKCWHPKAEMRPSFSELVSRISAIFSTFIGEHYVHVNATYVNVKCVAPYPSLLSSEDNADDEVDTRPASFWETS
Test: Met Autophosphorylation Assay
Type: biochemical
Settings: protocol P.130
measurement label: Met Kinase % Inhibition (P.130) (%)

# structure smiles string, system tested, value reported
rows = [
    ("O=C1Nc2c(Br)cc(Br)cc2C1=Cc1ccc(OCc2ccccc2)cc1", "Met receptor (EGFR/Met chimeric cells, EMR) (Homo sapiens, UniProt P08581)", 45.2),
    ("COc1ccc(Oc2cccc(C=C3C(=O)Nc4ccc(S(=O)(=O)Nc5ccc(C(F)(F)F)cc5)cc43)c2)cc1", "Met receptor (EGFR/Met chimeric cells, EMR) (Homo sapiens, UniProt P08581)", 16.1),
    ("O=C1Nc2ccc(I)cc2C1=Cc1ccc(Cl)c(Cl)c1", "Met receptor (EGFR/Met chimeric cells, EMR) (Homo sapiens, UniProt P08581)", 70.9),
    ("O=C1Nc2ccc(I)cc2C1=Cc1cccc(OCc2ccccc2)c1", "Met receptor (EGFR/Met chimeric cells, EMR) (Homo sapiens, UniProt P08581)", 62.4),
    ("COc1ccccc1C=C1C(=O)Nc2ccc(CCCl)cc21", "Met receptor (EGFR/Met chimeric cells, EMR) (Homo sapiens, UniProt P08581)", 16.9),
]

* * *

List of Flk Kinase % Inhibition (P.110) values.
System: FLK-1 receptor
Assay: FLK-1 Assay (cellular/catalytic ELISA, VEGF-stimulated phosphotyrosine)
Type: cell-based
Design: concentration or dose not given beside the values
Conditions: protocol P.110
measurement label: Flk Kinase % Inhibition (P.110) (%)

# structure smiles string, value units, value reported
data = [
    ("O=C1Nc2ccc(S(=O)(=O)Nc3ccc(C(F)(F)F)cc3)cc2C1=Cc1cc(F)ccc1F", "%", 16.1),
    ("Cc1ccc(C=C2C(=O)Nc3c(Br)cc(Br)cc32)c(C)c1", "%", "−1.2"),
    ("COc1ccccc1C=C1C(=O)Nc2c(Br)cc(Br)c(C)c21", "%", "−6.5"),
    ("Cc1c(Br)ccc2c1C(=Cc1cccc(O)c1O)C(=O)N2", "%", "−68.1"),
    ("Cc1c(Br)cc(Br)c2c1C(=Cc1ccc3ccccc3n1)C(=O)N2", "%", 3.2),
]
